Assay: solvent given as SMILES
Conditions: in ClCCl
// reported absorption maximum for each item listed
API: value field is a number in nm; no unit string.

The examples below pair each entry with its known result.
[
  {
    "compound": "C[Si]1(C)c2ccc(C#Cc3ccccc3)cc2C=Cc2cc(C#Cc3ccccc3)ccc21",
    "absorption maximum (nm)": 346
  },
  {
    "compound": "COc1ccc2c(=O)c3c([nH]c2c1)-c1ccccc1NC3(C)C",
    "absorption maximum (nm)": 403
  },
  {
    "compound": "O=C1c2cc(-n3c4ccccc4c4ccccc43)ccc2S(=O)(=O)c2ccc(-n3c4ccccc4c4ccccc43)cc21",
    "absorption maximum (nm)": 406
  },
  {
    "compound": "CN(C)c1ccc(/C=C/c2ccnc(/C=C/c3ccc(N(C)C)cc3)n2)cc1",
    "absorption maximum (nm)": 385
  },
  {
    "compound": "Fc1ccc(C2=[N+]3C(=Nc4c5ccccc5c(-c5ccc(F)cc5)n4[B-]3(F)F)c3ccccc32)cc1",
    "absorption maximum (nm)": 713
  }
]

Which absorption maximum is listed for `Oc1cc(-c2ccco2)ccc1-c1nc2ccccc2s1` ? 361

Which absorption maximum is listed for COc1ccc(C2=C(c3ccc(OC)cc3)c3cccc4c5c(cc(c34)O2)=NC2C=C(Br)C(Br)=CC2N=5)cc1 (stereo not drawn) ? 526

Which absorption maximum is listed for `CCC1(CC)c2cc(/C=C/c3cc(Br)c(/C=C/c4ccc5c(c4)C(CC)(CC)c4cc(N6c7ccccc7Sc7ccccc76)ccc4-5)cc3Br)ccc2-c2ccc(N3c4ccccc4Sc4ccccc43)cc21` ? 426

###

Test: solvent given as SMILES
Conditions: in O
result-type: absorption maximum (nm)
API: value field is a number in nm; no unit string.

[
  {
    "compound": "COc1ccc2ccc(O)cc2c1",
    "absorption maximum / nm": 325
  }
]

Which absorption maximum is listed for `C[n+]1ccc(-c2ccc([O-])cc2)cc1` ? 394

Which absorption maximum is listed for COc1ccc(C2CC(c3ccc(O)cc3)=NN2c2ccc(S(N)(=O)=O)cc2)cc1 (stereo unspecified) ? 360

Which absorption maximum is listed for `Cn1c(=O)c(/N=N/c2ccc(/N=N/c3ccc(S(=O)(=O)O)cc3)cc2)c(O)c2ccccc21` ? 447

Which absorption maximum is listed for `CN(C)c1ccc(/C=C/c2cc[n+](C)cc2)cc1` ? 448

Which absorption maximum is listed for `CC[N+]1(CC)CN2C(=N1)C(C(=O)[O-])=Cc1ccccc12` ? 369

###

Assay: solvent given as SMILES
Settings: in CC#N
result-type: absorption maximum (nm)
API: value field is a number in nm; no unit string.

The examples below pair each entry with its known result.
[
  {
    "molecule": "CC(C)(C)C1Nc2c(Br)cc(Br)cc2C(=O)N1Cc1ccccc1 (stereo unspecified)",
    "u": "nm",
    "absorption maximum": 360
  },
  {
    "molecule": "CN(CC(O)c1cccc(O)c1)c1ccc([N+](=O)[O-])c(C2CC(c3cccc4ccccc34)=NN2c2ccccc2)c1 (stereo unspecified)",
    "u": "nm",
    "absorption maximum": 402
  },
  {
    "molecule": "Cc1nc(-c2ccccc2)c2ccccn12",
    "u": "nm",
    "absorption maximum": 364
  },
  {
    "molecule": "COc1c2ccccc2c(OC)c2c1c1ccc(C(F)(F)F)cc1n2C",
    "u": "nm",
    "absorption maximum": 417
  },
  {
    "molecule": "COc1cc(/C=C2/SC(=O)NC2=O)cc(OC)c1O",
    "u": "nm",
    "absorption maximum": 362
  }
]

Which absorption maximum is listed for `COc1cc2c(cc1/C=C(\C#N)c1nc3ccccc3s1)c1ccccc1n2C` ? 431

Which absorption maximum is listed for `CC(=O)[B-]1(C(C)=O)OC(c2ccc3ccccc3c2)=CC(c2ccc3ccccc3c2)=[O+]1` ? 420

Which absorption maximum is listed for `Cc1c(C2=[N+]3C(=Cc4c(C)c5ccccc5n4[B-]3(F)F)c3ccccc32)[nH]c2ccccc12` ? 591

Which absorption maximum is listed for `COc1ccc2cc3c(C)cc(=O)oc3cc2c1` ? 340

Which absorption maximum is listed for CC1CC=C(c2ccc(-c3cccs3)s2)CC1 (stereo unspecified) ? 341

Which absorption maximum is listed for `CCc1c(C)c2n(c1C)[B-](F)(F)[N+]1=C(NCc3ccc(OC)cc3)C=CC1=C2C` ? 524

Which absorption maximum is listed for `CN(C)c1cccc2c1-c1ccccc1C2=O` ? 439

Which absorption maximum is listed for `c1ccc2c(c1)ncc1ccc3cnc4ccccc4c3c12` ? 397

Which absorption maximum is listed for `N#CC(C#N)=C(/C=C/c1ccc(N(c2ccccc2)c2ccccc2)cc1)c1ccc2c3c(cccc13)CC2` ? 486

Which absorption maximum is listed for `CN(C)c1ccc(/C=C/c2ccc(C#N)cc2)cc1` ? 383

Which absorption maximum is listed for C1=C(c2ccc(-c3cccs3)s2)CCC(c2ccccc2)C1 (stereo unspecified) ? 341

Which absorption maximum is listed for `CC(C)(C)c1cc2ccc3cc(C(C)(C)C)cc4c3c2c(c1)c(=O)n1c4nc2c3ccccc3c3ccccc3c21` ? 365
